Consider the following compounds and their measured MIC readings.
System: E. coli ATCC25922
Experiment: Bacterial growth minimal inhibitory concentration (CLSI broth microdilution)
Format: cell-based
Conditions: Escherichia coli, ATCC25922; quinolone-sensitive strain; cation-adjusted Mueller-Hinton Broth

| smiles input | MIC / µg/mL |
| --- | --- |
| C[C@@H]1[C@@H](C#CC#Cc2cc3n(c2)C(=O)N(CC[C@](C)(C(=O)NO)S(C)(=O)=O)C3)CN1C | 0.25 |
| C[C@@](CCN1Cc2cc(C#CC#C[C@@H]3C[C@H]3[C@H](O)CO)cn2C1=O)(C(=O)NO)S(C)(=O)=O | 0.5 |
| CNC1(C#CC#Cc2cc3n(c2)C(=O)N(CC[C@](C)(C(=O)NO)S(C)(=O)=O)C3)CC1 | 0.063 |
| C[C@@](CCN1Cc2cc(C#CC#CC3CN(CC4CC4)C3)cn2C1=O)(C(=O)NO)S(C)(=O)=O | 0.125 |
| C[C@@](CCN1Cc2cc(C#CC#CC3CN(CC(CO)CO)C3)cn2C1=O)(C(=O)NO)S(C)(=O)=O | 2 |
| C[C@@](CCN1Cc2cc(C#Cc3ccc(CN4CC(O)C4)cc3)cn2C1=O)(C(=O)NO)S(C)(=O)=O | 0.5 |

----------
Test system: E. coli ATCC25922
Assay: Bacterial growth minimal inhibitory concentration (CLSI broth microdilution)
Assay type: cell-based
Conditions: Escherichia coli, ATCC25922; quinolone-sensitive strain; cation-adjusted Mueller-Hinton Broth
Experimental: Minimal Inhibitory Concentrations (MICs; mg/L) were determined in cation-adjusted Mueller-Hinton Broth by a microdilution method following the description given in “Methods for Dilution Antimicrobial Susceptibility Tests for Bacteria that Grow Aerobically”, Approved standard, 7th ed., Clinical and Laboratory Standards Institute (CLSI) Document M7-A7, Wayne, Pa., USA (2006). All Reference Example compounds were tested against several Gram-negative bacteria. […]
# maps each entry to its MIC
property measured: MIC (µg/mL)

| molecule | assay target | measured |
| --- | --- | --- |
| C[C@@](CCN1Cc2cc(C#Cc3ccc(CN4CC[C@H](N)[C@@H](F)C4)cc3)cn2C1=O)(C(=O)NO)S(C)(=O)=O (relative stereo) | E. coli ATCC25922 | 1 |
| CN(C)C1(C#CC#Cc2cc3n(c2)C(=O)N(CC[C@](C)(C(=O)NO)S(C)(=O)=O)C3)CC1 | E. coli ATCC25922 | 0.5 |
| C[C@H]1[C@H](C#CC#Cc2cc3n(c2)C(=O)N(CC[C@](C)(C(=O)NO)S(C)(=O)=O)C3)CN1C | E. coli ATCC25922 | 0.25 |

----------
Tested on: E. coli ATCC25922
Test: Bacterial growth minimal inhibitory concentration (CLSI broth microdilution)
Assay type: cell-based
Details: Escherichia coli, ATCC25922; quinolone-sensitive strain; cation-adjusted Mueller-Hinton Broth
property measured: MIC (µg/mL)

| compound | measured |
| --- | --- |
| CN1CC(F)(C#CC#Cc2cc3n(c2)C(=O)N(CC[C@](C)(C(=O)NO)S(C)(=O)=O)C3)C1 [Example 33] | 0.25 |
| C[C@@](CCN1Cc2cc(C#CC#CCOC(=O)N3CC(O)C3)cn2C1=O)(C(=O)NO)S(C)(=O)=O [Example 24] | 0.5 |
| CN1CC(C#Cc2ccc(-c3cc4n(c3)C(=O)N(CC[C@](C)(C(=O)NO)S(C)(=O)=O)C4)c(F)c2)C1 [Example 84] | 0.5 |
| C[C@@](CCN1Cc2cc(C#Cc3ccc(CN4CC5C(N)C5C4)cc3)cn2C1=O)(C(=O)NO)S(C)(=O)=O (stereo partly drawn) [Example 4] | 2 |
| [2H]C([2H])N1CC(C#CC#Cc2cc3n(c2)C(=O)N(CC[C@](C)(C(=O)NO)S(C)(=O)=O)C3)C1 [Example 52] | 0.5 |
| CC(=O)N1CC(O)(c2ccc(C#Cc3cc4n(c3)C(=O)N(CC[C@](C)(C(=O)NO)S(C)(=O)=O)C4)cc2)C1 [Example 6] | 2 |
| C[C@@](CCN1Cc2cc(C#CC#CC3CN(C4CCC4)C3)cn2C1=O)(C(=O)NO)S(C)(=O)=O [Example 62] | 0.125 |
| CN1CC(OC(=O)NCC#CC#Cc2cc3n(c2)C(=O)N(CC[C@](C)(C(=O)NO)S(C)(=O)=O)C3)C1 [Example 39] | 8 |
| C[C@@](CCN1Cc2cc(C#CC#CC3CCN(C4COC4)CC3)cn2C1=O)(C(=O)NO)S(C)(=O)=O [Example 35] | 0.5 |
| C[C@@](CCN1Cc2cc(C#CC#CC3(F)CCN(CCO)C3)cn2C1=O)(C(=O)NO)S(C)(=O)=O (mixture of isomers) [Example 77] | 0.5 |
| CN1CC[C@](F)(C#CC#Cc2cc3n(c2)C(=O)N(CC[C@](C)(C(=O)NO)S(C)(=O)=O)C3)C1.O=C(O)C(F)(F)F (single isomer, unassigned) [Example 72] | 0.5 |
| C[C@@](CCN1Cc2cc(C#CC#CCN3CCOC3=O)cn2C1=O)(C(=O)NO)S(C)(=O)=O [Example 9] | 2 |
| C[C@@](CCN1Cc2cc(C#CC#CC3CN(CCO)C3)cn2C1=O)(C(=O)NO)S(C)(=O)=O [Example 41] | 0.5 |
| CN1CC(C#CC#Cc2cc3n(c2)C(=O)N(CC[C@](C)(C(=O)NO)S(C)(=O)=O)C3)C1 [Example 30] | 0.5 |
| C[C@@](CCN1Cc2cc(C#Cc3ccc([C@@H](O)CN4CCOCC4)cc3)cn2C1=O)(C(=O)NO)S(C)(=O)=O (single isomer, unassigned) [Example 1] | 1 |
| C[C@@](CCN1Cc2cc(C#CC#CC3(F)CCN(C4COC4)CC3)cn2C1=O)(C(=O)NO)S(C)(=O)=O [Example 47] | 0.5 |
| C[C@@](CCN1Cc2cc(C#Cc3ccc([C@H](O)CN4CCOCC4)cc3)cn2C1=O)(C(=O)NO)S(C)(=O)=O (single isomer, unassigned) [Example 2] | 1 |
| C[C@@](CCN1Cc2cc(C#Cc3ccc(CN4CC[C@H](O)[C@H](F)C4)cc3)cn2C1=O)(C(=O)NO)S(C)(=O)=O (relative stereo) [Example 42] | 0.5 |
| C[C@@](CCN1Cc2cc(C#CC#CC3(COC(=O)N4CC(O)C4)CC3)cn2C1=O)(C(=O)NO)S(C)(=O)=O [Example 22] | 1 |
| CN1C[C@H](O)[C@@H](C#CC#Cc2cc3n(c2)C(=O)N(CC[C@](C)(C(=O)NO)S(C)(=O)=O)C3)C1 (relative stereo) [Example 99] | 2 |
| CCC1(C#CC#Cc2cc3n(c2)C(=O)N(CC[C@](C)(C(=O)NO)S(C)(=O)=O)C3)CN(C)C1 [Example 79] | 2 |
| C[C@@](CCN1Cc2cc(C#Cc3ccc(C4(F)CN(C5COC5)C4)cc3)cn2C1=O)(C(=O)NO)S(C)(=O)=O [Example 16] | 0.25 |
| CN1CCC(C#Cc2ccc(-c3cc4n(c3)C(=O)N(CC[C@](C)(C(=O)NO)S(C)(=O)=O)C4)c(F)c2)CC1 [Example 87] | 4 |
| C[C@@](CCN1Cc2cc(C#CC#CC3CN(C[C@@H](O)CO)C3)cn2C1=O)(C(=O)NO)S(C)(=O)=O [Example 51] | 1 |
| C[C@@](CCN1Cc2cc(C#Cc3ccc(COC(=O)N4CC(O)C4)cc3)cn2C1=O)(C(=O)NO)S(C)(=O)=O [Example 10] | 0.25 |
| CN(C)C[C@@H]1C[C@H]1C#CC#Cc1cc2n(c1)C(=O)N(CC[C@](C)(C(=O)NO)S(C)(=O)=O)C2 [Example 44] | 2 |
| C[C@@](CCN1Cc2cc(C#CC#CC3CN(C4CCCCC4)C3)cn2C1=O)(C(=O)NO)S(C)(=O)=O [Example 70] | 0.125 |

Data credit: patent US10314823B2
